Recorded normalized growth values for a group of molecules are listed next.
- ASSAY PROCEDURE: chemical genetic growth profiling, strain panel (AID 1159580);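 also: tested at 20 µM; growth read once vehicle control cultures reached saturation at 30 °C; 1 = growth at the plate median or of vehicle wells; lower values mean less growth of the strain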
- EXPERIMENTAL CONDITIONS: S. cerevisiae deletion strains, growth OD, locus YMR219W, strain ESC1, hits give low values
Hit rate of the full screen: of about 5,500 compounds, about 2,000 (36%) were called active. About 18% were inconclusive and are not listed. The list shows a part of the results.
Keep the answer to the number alone.

Cn1c2c(c(=O)n(C)c1=O)CN(CCCCCCO)CN2 ... 1

Query :: Record request: normalized growth value, item CSc1nc(N)n(-c2ccccc2)n1
Result :: 1

Query :: Follow-up entry: c1ccc(OCCOc2ccccn2)nc1
Result :: 1.01

Query :: Follow-up entry: Cc1ccc(-c2csc(CC#N)n2)cc1C
Result :: 0.961

Query :: Follow-up entry: S=c1nc2[nH]c3ccccc3c2n[nH]1
Result :: 0.994

Query :: Follow-up entry: O=[N+]([O-])c1cc(C(F)(F)F)c(N2CCCCC2)cc1N1CCCCC1
Result :: 0.983
